Tested on: EVSA-T (human breast carcinoma)
Test: Anti-proliferative activity, Alamar Blue assay, EVSA-T
Type: cell-based
Conditions: Homo sapiens, EVSA-T; read-out: EC50 in EVSA-T cell line assays
Counter-ions that a name gives are not always drawn.

molecule	EC50
COCC1(C)COCCN1C[C@H]1CN[C@H](C)CN1CC(=O)N1CC(C)(C)c2ncc(Cc3ccc(F)cc3)cc21 (single isomer, unassigned) [Example 100, dihydrochloride]	< 1000 nM
CCCC(O)c1cc2c(cn1)C(C)(C)CN2C(=O)CN1C[C@@H](C)NC[C@@H]1CN1[C@H](C)COC[C@H]1C (stereo partly drawn) [Example 90, dihydrochloride]	< 1000 nM
C[C@@H]1CN(CC(=O)N2CC(C)(C)c3ncc(C(O)c4ccc(F)cc4F)cc32)[C@@H](CN2[C@H](C)COC[C@H]2C)CN1 (single isomer, unassigned) [Example 103, dihydrochloride]	< 1000 nM

---

Biological target: BIR3 domain of human XIAP (Homo sapiens, UniProt P98170)
Construct: BIR3 domain of human XIAP (residues 252-350) fused to a His-tag; His-tag (cleaved yes); made in house; host or cells: Escherichia coli
Sequence (P98170 252-350): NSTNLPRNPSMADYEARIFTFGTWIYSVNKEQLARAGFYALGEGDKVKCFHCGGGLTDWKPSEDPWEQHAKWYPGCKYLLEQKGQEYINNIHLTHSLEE
Experiment: XIAP in vitro competitive displacement binding assay (fluorescence polarization)
Conditions: 1 h, PI at 0.04 μM; read-out: Xiap IC50 or PI μM (PI)
Where a name gives a salt, the structure may show the parent alone.
inhibition at 0.04 µM by entry:

molecule	measure.unit	inhibition at 0.04 µM
C[C@@H]1CN(CC(=O)N2CC(C)(C)c3ncc(Cc4ccccc4)cc32)[C@@H](CN2[C@H](C)COC[C@H]2C)CN1 [Example 29, dihydrochloride]	%	47
C[C@@H]1CN(CC(=O)N2CC(C)(C)c3ncc(C(O)c4cccc(F)c4F)cc32)[C@@H](CN2[C@H](C)COC[C@H]2C)CN1 (single isomer, unassigned) [Example 111, dihydrochloride]	%	45
C[C@@H]1CN(CC(=O)N2CC(C)(C)c3ncc(Cc4ccc(F)cc4)cc32)[C@@H](CN2CCOC[C@@]2(C)CO)CN1 [Example 51, dihydrochloride]	%	44
C[C@@H]1CN(CC(=O)N2CC(C)(C)c3ncc(Cc4ccc(F)cc4F)cc32)[C@@H](CN2[C@H](C)COC[C@H]2C)CN1 [Example 54, dihydrochloride]	%	59
CC1N(C[C@H]2CN[C@H](C)CN2CC(=O)N2CC(C)(C)c3ncc(Cc4ccc(F)cc4)cc32)CCOC1(C)C (some centres unmarked) [Example 32, dihydrochloride]	%	42

---

Entries annotated with measured inhibition at 0.04 µM
Molecular target: BIR3 domain of human XIAP (Homo sapiens)
Construct: BIR3 domain of human XIAP (residues 252-350) fused to a His-tag; His-tag (cleaved yes); made in house; host or cells: Escherichia coli
Assay: XIAP in vitro competitive displacement binding assay (fluorescence polarization)
Conditions: 1 h, PI at 0.04 μM; read-out: Xiap IC50 or PI μM (PI)
Structures can show the parent of a compound that is named as a salt.

compound	inhibition at 0.04 µM
C[C@@H]1CN(CC(=O)N2CC(C)(C)c3cnc(Cc4ccc(F)cc4F)cc32)[C@@H](CN2CCOC[C@@]2(C)CO)CN1 (single isomer, unassigned) [Example 67, dihydrochloride]	65%
C[C@@H]1CN(CC(=O)N2CC(C)(C)c3ncc(Cc4ccc(F)cc4F)cc32)[C@@H](CN2CCOC[C@]2(C)CO)CN1 [Example 57, dihydrochloride]	41%
C[C@@H]1CN(CC(=O)N2CC(C)(C)c3ncc(Cc4ccc(F)cc4F)cc32)[C@@H](CN2CCOC[C@@]2(C)CO)CN1 [Example 58, dihydrochloride]	51%
COC[C@@]1(C)COCCN1C[C@H]1CN[C@H](C)CN1CC(=O)N1CC(C)(C)c2cnc(Cc3ccc(F)cc3F)cc21 [Example 98, dihydrochloride]	62%
C[C@@H]1CN(CC(=O)N2CC(C)(C)c3ncc(C(O)c4cc(F)ccc4F)cc32)[C@@H](CN2[C@H](C)COC[C@H]2C)CN1 (single isomer, unassigned) [Example 116, dihydrochloride]	47%
